Source listed as patent US20200095340A1.

Biological target: biotinylated human DLL3 protein expressed as a human IgG1 fusion protein (human) (UniProt Q9NYJ7)
Sequence (Q9NYJ7 27-492): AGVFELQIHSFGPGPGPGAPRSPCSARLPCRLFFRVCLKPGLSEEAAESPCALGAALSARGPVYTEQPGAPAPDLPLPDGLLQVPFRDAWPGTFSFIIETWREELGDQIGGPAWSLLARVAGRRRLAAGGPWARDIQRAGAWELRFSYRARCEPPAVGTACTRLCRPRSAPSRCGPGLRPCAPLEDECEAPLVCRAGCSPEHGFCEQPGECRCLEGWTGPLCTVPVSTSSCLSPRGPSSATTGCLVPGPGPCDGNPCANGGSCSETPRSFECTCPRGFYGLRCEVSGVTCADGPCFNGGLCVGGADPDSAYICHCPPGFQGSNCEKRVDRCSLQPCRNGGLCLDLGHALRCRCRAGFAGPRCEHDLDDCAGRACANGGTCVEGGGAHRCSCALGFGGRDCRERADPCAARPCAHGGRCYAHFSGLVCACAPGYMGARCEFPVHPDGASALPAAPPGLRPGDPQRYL
Assay: Octet, biotinylated human DLL3-IgG1 fusion on streptavidin tips, single 50 nM, conditioned medium (relative KD)
quantity_measured: pKd
Note on pKd: it is the negative log10 of concentration, concentration in mol/L.

Lab book: pKd of anti-DLL3 trispecific protein, DLL3 binder 4A08 (protein, part only; not given: CD3 binder and albumin binder, part only) chain, part: EVQLVESGGGLVQPGGSLTLSCAASGSSVSFLSMAWYRQAPGKKRELVAGISADGSTNYIDSVKGRFTISRDNAKNSVYLQMNSLRAEDTAVYYCYAYRWRTRYTYWGQGTLVTVSSGGGGSGGGSGGGGSGGGSHHHHHH noted as 7.62

Note to self: pKd recorded for anti-DLL3 trispecific protein, DLL3 binder 4C08 (protein, part only; not given: CD3 binder and albumin binder, part only) chain, part: EVQLVESGGGLVQPGGSLTLSCVASGSQVSFLSMAWYRQAPGKKRELVAGISADGSTDYFDSVKGRFTISRDNAKNSVYLQMNSLRAEDTAVYYCYAYRWTRRYTYWGQGTLVTVSSGGGGSGGGSGGGGSGGGSHHHHHH was 7.80
